Measured viability at 28.5 h, 10 µM of individual entries
assay: in vitro; conditions: human, hela cells, % viability
measured-endpoint: viability at 28.5 h, 10 µM (%)

[
  {
    "compound": "COc1ccc(CCN(CCc2ccccc2)CC(O)COc2cccc3c2CCCC3)cc1 (stereo not shown) [CBK024506T]",
    "numeric-result": 82.2
  },
  {
    "compound": "O=C(Nc1nnc(-c2ccco2)o1)C(c1ccccc1)c1ccccc1 [CBK287424]",
    "numeric-result": 91.9
  },
  {
    "compound": "COc1cc(Nc2nc(-c3ccc4[nH]ccc4c3)cn3ccnc23)cc(OC)c1OC [CBK038069]",
    "numeric-result": 95.5
  },
  {
    "compound": "COc1ccc(N2CCN(C(=O)c3ccc([N+](=O)[O-])o3)CC2)cc1 [CBK091410]",
    "numeric-result": 105
  },
  {
    "compound": "Cc1c(Cl)cccc1S(=O)(=O)Nc1nc(CSc2ccccn2)ns1 [CBK200054]",
    "numeric-result": 97.2
  },
  {
    "compound": "COc1cc(CNc2cc(-c3ccc(F)c(Cl)c3)nc3ccnn23)cc(OC)c1OC [CBK037209]",
    "numeric-result": 107
  },
  {
    "compound": "Fc1cccc(Sc2nnnn2-c2ccccc2)c1 [CBK002906]",
    "numeric-result": 108
  },
  {
    "compound": "O=C(Nc1nnc(SCc2cc(=O)n3nc[nH]c3n2)s1)c1ccc(F)cc1 [CBK294399]",
    "numeric-result": 90.2
  },
  {
    "compound": "CC1=C[C@@H](CNS(C)(=O)=O)[C@H](C(C)C)C[C@H]1CC(=O)Nc1ccccn1 [CBK289208]",
    "numeric-result": 89.3
  },
  {
    "compound": "c1csc(N2CCN(c3nccn4cnnc34)CC2)n1 [CBK305185]",
    "numeric-result": 103
  },
  {
    "compound": "C=C(C)Cn1c(-c2ccc(N)cc2)nc2ccccc21 [CBK287581]",
    "numeric-result": 89.2
  },
  {
    "compound": "Cc1ccc(C(=O)N2C[C@H]3CC[C@](O)(c4ccc(F)cc4)[C@H]3C2)o1 [CBK285267]",
    "numeric-result": 95
  },
  {
    "compound": "O=C(Nc1ccccc1)O[C@@H]1CO[C@H]2[C@@H]1OC[C@@H]2NC(=O)C1CC1 [CBK289464]",
    "numeric-result": 88
  },
  {
    "compound": "N#C/C(=C\\c1ccc(-c2ccc3c(c2)C(=O)NC3=O)o1)c1nc2ccccc2[nH]1 [CBK262965]",
    "numeric-result": 94.4
  },
  {
    "compound": "NNC(=O)C(Oc1ccccc1)Oc1ccccc1 [CBK261210]",
    "numeric-result": 100
  },
  {
    "compound": "CC1=CC(C)(C)N(CC(=O)c2ccc([N+](=O)[O-])cc2)c2c(C)cccc21 [CBK261652]",
    "numeric-result": 103
  },
  {
    "compound": "CC(=O)c1cc(CN(C)C(C)c2ccncn2)cs1 (stereo not shown) [CBK307470]",
    "numeric-result": 85.5
  },
  {
    "compound": "CC(Cc1nc(C2(Cl)CC2)cs1)n1cc(Cl)cn1 (stereo not shown) [CBK304715]",
    "numeric-result": 85.5
  },
  {
    "compound": "Clc1ccc(OCCOc2cncc(N3CCCC3)n2)cc1 [CBK115668]",
    "numeric-result": 87.4
  },
  {
    "compound": "O=C(NCC1CCCO1)C1(Cc2ccc(-c3ccc(F)c(F)c3)cc2)CCOCC1 (stereo not shown) [CBK285534]",
    "numeric-result": 97.2
  },
  {
    "compound": "Cc1ccc(S(=O)(=O)Nc2nnc(C3CCCCC3)s2)cc1 [CBK022722]",
    "numeric-result": 101
  },
  {
    "compound": "COCc1nnc(Sc2nccc(C(F)(F)F)n2)s1 [CBK093790]",
    "numeric-result": 99.5
  },
  {
    "compound": "O=C(NCCO)c1cccc(-c2cncc(N3CCCCC3CCO)n2)c1 (stereo not shown) [CBK037759]",
    "numeric-result": 104
  },
  {
    "compound": "C[C@]12CN(Cc3cccs3)C[C@H]1C(=O)Nc1ccccc1C(=O)N2 [CBK284705]",
    "numeric-result": 98.2
  },
  {
    "compound": "O=C1NC2(CCN(C(=O)CC3c4ccccc4Oc4ccccc43)CC2)Nc2ccccc21 [CBK286307]",
    "numeric-result": 98.8
  },
  {
    "compound": "CC(C)Nc1cccnc1N(C)C1CCN(C(=O)c2cc(Br)c[nH]2)CC1 [CBK016797]",
    "numeric-result": 105
  },
  {
    "compound": "Cc1nc(CCNC(=O)C2CCN(C(=O)c3ccc(F)cc3)CC2)cs1 [CBK304378]",
    "numeric-result": 105
  },
  {
    "compound": "O=C(O)c1ccc(NS(=O)(=O)c2ccc(NC(=O)c3ccccc3Cl)cc2)cc1 [CBK265184]",
    "numeric-result": 93
  },
  {
    "compound": "Cc1cc(NS(=O)(=O)c2cccc3nsnc23)n(C)n1 [CBK067246]",
    "numeric-result": 95.4
  },
  {
    "compound": "Cc1ccc(NC(=O)N(CCC#N)C2CCCCC2)cc1 [CBK156381]",
    "numeric-result": 106
  },
  {
    "compound": "COc1ccc([C@@]23CCC(CC(=O)O)C[C@@H]2N(C)CC3)cc1OC (stereo partly shown) [CBK045765A]",
    "numeric-result": 107
  }
]
